// provenance: paper PMC8296307

# systemTested: m5-HT2C-VNV (Mus musculus, UniProt P34968, I157V/I161V)
# Sequence (P34968 33-459 I157V/I161V): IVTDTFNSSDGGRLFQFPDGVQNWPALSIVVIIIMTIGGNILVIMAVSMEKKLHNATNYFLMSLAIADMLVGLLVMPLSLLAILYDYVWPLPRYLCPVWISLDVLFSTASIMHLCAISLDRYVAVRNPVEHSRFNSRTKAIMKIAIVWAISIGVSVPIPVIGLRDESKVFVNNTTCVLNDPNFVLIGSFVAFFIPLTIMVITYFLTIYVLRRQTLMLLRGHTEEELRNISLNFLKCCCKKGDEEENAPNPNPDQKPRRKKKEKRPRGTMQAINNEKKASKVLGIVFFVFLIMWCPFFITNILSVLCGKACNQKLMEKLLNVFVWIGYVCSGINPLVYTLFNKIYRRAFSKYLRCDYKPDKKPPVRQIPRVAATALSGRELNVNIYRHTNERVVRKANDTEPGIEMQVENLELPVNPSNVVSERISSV
# Type: binding
Provide the recorded pKi for the entries that follow.
Here pKi is given on a logarithmic scale as minus log10 of the concentration in mol/L.

Hey, m5-HT2C-VNV (Mus musculus, UniProt P34968, I157V/I161V) data for C[C@H]1CNCCc2ccc(Cl)cc21 : pKi came out at 6.13

# value of pKi, m5-HT2C-VNV (Mus musculus, UniProt P34968, I157V/I161V), item CN1C[C@@H](NS(=O)(=O)N(C)C)C[C@@H]2c3cccc4c3c(cn4C)C[C@H]21 = 8.47

----------
# systemTested: m5-HT2A (Mus musculus, UniProt P35363)
# Sequence (P35363 whole entry): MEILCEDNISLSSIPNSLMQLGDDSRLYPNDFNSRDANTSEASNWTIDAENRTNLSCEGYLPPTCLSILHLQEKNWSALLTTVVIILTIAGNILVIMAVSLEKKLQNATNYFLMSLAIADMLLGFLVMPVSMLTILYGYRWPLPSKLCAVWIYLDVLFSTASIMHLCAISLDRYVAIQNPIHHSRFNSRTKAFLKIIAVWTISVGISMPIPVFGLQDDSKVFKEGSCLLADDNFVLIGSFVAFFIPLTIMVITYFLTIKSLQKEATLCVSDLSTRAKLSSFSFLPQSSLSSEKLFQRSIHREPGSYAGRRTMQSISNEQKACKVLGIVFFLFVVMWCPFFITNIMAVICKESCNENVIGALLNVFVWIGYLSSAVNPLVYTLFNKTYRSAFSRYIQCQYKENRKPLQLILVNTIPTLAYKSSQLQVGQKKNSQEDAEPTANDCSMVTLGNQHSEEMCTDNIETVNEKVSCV
# measurementProtocol: Radioligand competition binding, [3H]Ketanserin, m5-HT2A in HEK293 membranes
# testConditions: [3H]Ketanserin, one-site fit Ki, mean
parameterMeasured: Ki (µM)
Report the value in µM with no unit label.

The reported value for COc1cc(CC(C)N)c(OC)cc1I (racemic) [DOI, (±)-2,5-dimethoxy-4-iodoamphetamine] in terms of Ki is 0.033

----------
# systemTested: m5-HT2C-VNV (Mus musculus, UniProt P34968, I157V/I161V)
# Type: binding
# testConditions: [3H]Mesulergine, one-site fit Ki, mean
parameterMeasured: pKi
Scale: negative log10 of molar concentration, which is what pKi denotes.

Recorded result, COc1cc(CC(C)N)c(OC)cc1I (racemic) [DOI, (±)-2,5-dimethoxy-4-iodoamphetamine] , pKi: 7.19

----------
# systemTested: m5-HT2C-VNV (Mus musculus, UniProt P34968, I157V/I161V)
# measurementProtocol: 5-HT2CR-mediated phosphoinositide hydrolysis, m5-HT2C-VNV in HEK293 cells
# Type: cell-based
# testConditions: phosphoinositide hydrolysis, mean
parameterMeasured: EC50
I'd appreciate it if you included the unit after the number.

Record COc1cc(CC(C)N)c(OC)cc1I (racemic) [DOI, (±)-2,5-dimethoxy-4-iodoamphetamine] . Reported EC50: 8 nM

----------
# systemTested: m5-HT2C-VNV (Mus musculus, UniProt P34968, I157V/I161V)
# Sequence (P34968 33-459 I157V/I161V): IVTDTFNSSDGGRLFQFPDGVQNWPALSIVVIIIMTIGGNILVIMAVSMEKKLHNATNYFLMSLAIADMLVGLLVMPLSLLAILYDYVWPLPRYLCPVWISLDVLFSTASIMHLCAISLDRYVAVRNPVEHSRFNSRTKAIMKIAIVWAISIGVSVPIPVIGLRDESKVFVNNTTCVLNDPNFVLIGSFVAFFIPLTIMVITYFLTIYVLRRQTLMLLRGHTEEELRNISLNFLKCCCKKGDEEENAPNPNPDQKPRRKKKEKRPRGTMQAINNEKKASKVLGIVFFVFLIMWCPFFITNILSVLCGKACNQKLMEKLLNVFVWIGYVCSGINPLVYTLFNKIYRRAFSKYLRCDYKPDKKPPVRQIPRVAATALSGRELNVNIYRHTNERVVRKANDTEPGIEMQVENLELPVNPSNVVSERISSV
# measurementProtocol: 5-HT2CR-mediated phosphoinositide hydrolysis, m5-HT2C-VNV in HEK293 cells
# Assay type: cell-based
parameterMeasured: pEC50
By convention, pEC50 is the negative base-10 log of a molar concentration.

Entry C[C@H]1CNCCc2ccc(Cl)cc21 [Lorcaserin] ; pEC50 = 7.80

----------
# systemTested: h5-HT2C-INI (Homo sapiens, UniProt P28335)
# Sequence (P28335 33-458): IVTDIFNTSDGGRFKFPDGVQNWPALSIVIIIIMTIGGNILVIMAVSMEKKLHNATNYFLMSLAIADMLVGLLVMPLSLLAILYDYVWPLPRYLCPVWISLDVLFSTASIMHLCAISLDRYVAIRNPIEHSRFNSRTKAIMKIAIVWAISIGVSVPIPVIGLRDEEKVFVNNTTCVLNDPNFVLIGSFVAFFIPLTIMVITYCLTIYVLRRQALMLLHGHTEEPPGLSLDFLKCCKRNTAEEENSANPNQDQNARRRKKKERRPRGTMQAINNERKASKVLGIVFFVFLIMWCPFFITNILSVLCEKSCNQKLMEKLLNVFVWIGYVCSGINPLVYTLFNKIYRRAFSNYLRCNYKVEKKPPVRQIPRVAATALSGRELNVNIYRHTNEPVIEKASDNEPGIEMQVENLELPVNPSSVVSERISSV
# testConditions: [3H]Mesulergine, one-site fit Ki, mean
parameterMeasured: Ki (nM)
Hi! Could you send only the number? It should be in nM, unit omitted.

Value of measured Ki for the entry COc1cc(CC(C)N)c(OC)cc1I (racemic) [DOI, (±)-2,5-dimethoxy-4-iodoamphetamine] : 96

----------
# systemTested: m5-HT2A (Mus musculus, UniProt P35363)
# measurementProtocol: 5-HT2AR-mediated phosphoinositide hydrolysis, m5-HT2A in HEK293 cells
# Format: cell-based
# testConditions: pEC50 (95% CI), phosphoinositide hydrolysis, mean (95% CI)
parameterMeasured: EC50 (µM)
State the answer as a number, implicitly in µM.

According to the records, this compound C[C@H]1CNCCc2ccc(Cl)cc21 [Lorcaserin] displays EC50 of 0.209

----------
# systemTested: m5-HT2A (Mus musculus, UniProt P35363)
# measurementProtocol: 5-HT2AR-mediated phosphoinositide hydrolysis, m5-HT2A in HEK293 cells
# Type: cell-based
# testConditions: phosphoinositide hydrolysis, mean
parameterMeasured: pEC50
Here pEC50 is given on a logarithmic scale as minus log10 of the concentration in mol/L.

// pEC50 lookup, compound = COc1cc(CC(C)N)c(OC)cc1I (racemic) [DOI, (±)-2,5-dimethoxy-4-iodoamphetamine] , result: 9.00
